Below, each entry is listed with its recorded Inhibition potency (FRET IC50).
- target.system: catalytic domain of MMP-14 (cdMMP-14) (human, UniProt P50281 114-287, limits assumed, biotinylated (Sulfo-NHS-LC-Biotin) where immobilised via streptavidin)
- assay.remarks: cell-based or functional assay
recorded.endpoint: Inhibition potency (FRET IC50) (nM)

>>> experimental_result("Fab R3C13 (Fab, V domains shown) VH: EVQLVESGGGLVQPGGSLRLSCAASGFNIYYSYMHWVRQAPGKGLEWVASISSYSGSTSYADSVKGRFTISADTSKNTAYLQMNSLRAEDTAVYYCARWLRVSLKSGVYKVLARAVELDEYVMDYWGQGTLVTVSS VL: DIQMTQSPSSLSASVGDRVTITCRASQSVSSAVAWYQQKPGKAPKLLIYSASSLYSGVPSRFSGSRSGTDFTLTISSLQPEDFATYYCQQSGYYAWPITFGQGTKVEIKR")
2000
>>> experimental_result("Fab R2C5 (Fab, V domains shown) VH: EVQLVESGGGLVQPGGSLRLSCAASGFNLSSYYMHWVRQAPGKGLEWVASIYPYSSYTSYADSVKGRFTISADTSKNTAYLQMNSLRAEDTAVYYCARIMKIKRNSLKFRGFVPLQMQYVMDYWGQGTLVTVSS VL: DIQMTQSPSSLSASVGDRVTITCRASQSVSSAVAWYQQKPGKAPKLLIYSASSLYSGVPSRFSGSRSGTDFTLTISSLQPEDFATYYCQQSYGLFTFGQGTKVEIKR")
50
>>> experimental_result("Fab R2C6 (Fab, V domains shown) VH: EVQLVESGGGLVQPGGSLRLSCAASGFNIYYSSMHWVRQAPGKGLEWVAYISPYYGYTSYADSVKGRFTISADTSKNTAYLQMNSLRAEDTAVYYCARKDLLKTNRLTTRYKKSVSVGYGMDYWGQGTLVTVSS VL: DIQMTQSPSSLSASVGDRVTITCRASQSVSSAVAWYQQKPGKAPKLLIYSASSLYSGVPSRFSGSRSGTDFTLTISSLQPEDFATYYCQQYVYPPFTFGQGTKVEIKR")
2400
